# tgt: T1, human serum albumin (human, UniProt P02768 25-609)
# T1 construct: mature; Bought purified serum albumin; also called HSA; Human albumin
# method-summary: SPR, Fab captured; albumin taken as HSA;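 further: antibody captured on the sensor surface, albumin injected for a 3 min association phase, then dissociation followed, with signals corrected against a blank flow cell and buffer-only injections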
Let's look at some binders and their measured Kd.
Your answer should be a plain number; it is taken to be in nM.

Illustrative cases are given below, each with its answer.
CA645 gL4gH32 Fab (Fab, V domains shown, Fab: human gamma1 CH1, human kappa (Km3); Kabat numbering) VH: EVQLLESGGGLVQPGGSLRLSCAVSGIDLSNYAINWVRQAPGKGLEWIGIIWAIGTTFYATWAKGRFTISRDNSKNTVYLQMNSLRAEDTAVYYCARTVPGYSTAPYFDLWGQGTLVTVSS VL: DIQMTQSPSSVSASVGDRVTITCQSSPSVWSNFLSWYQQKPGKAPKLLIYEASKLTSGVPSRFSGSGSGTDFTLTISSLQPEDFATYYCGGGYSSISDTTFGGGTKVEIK = 4.38
CA645 gL19gH5 Fab (Fab, V domains shown, Fab: human gamma1 CH1, human kappa (Km3); Kabat numbering) VH: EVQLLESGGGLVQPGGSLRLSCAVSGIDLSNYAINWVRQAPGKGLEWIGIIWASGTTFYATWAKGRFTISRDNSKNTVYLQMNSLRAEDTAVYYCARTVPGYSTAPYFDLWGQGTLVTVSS VL: DIQMTQSPSSVSASVGDRVTITCQSSPSVWDNFLSWYQQKPGKAPKLLIYEASKLTSGVPSRFSGSGSGTDFTLTISSLQPEDFATYYCGGGYSSISDTTFGGGTKVEIK = 5

Query :: Endpoint output: Kd of CA645 gL25gH5 Fab (Fab, V domains shown, Fab: human gamma1 CH1, human kappa (Km3); Kabat numbering) VH: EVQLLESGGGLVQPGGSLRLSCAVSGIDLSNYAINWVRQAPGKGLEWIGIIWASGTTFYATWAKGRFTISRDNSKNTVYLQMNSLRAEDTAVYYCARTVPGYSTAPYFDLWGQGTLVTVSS VL: DIQMTQSPSSVSASVGDRVTITCQSSPSVWFNFLSWYQQKPGKAPKLLIYEASKLTSGVPSRFSGSGSGTDFTLTISSLQPEDFATYYCGGGYSSISDTTFGGGTKVEIK . Value?
Result :: 3.85

Query :: Same question, CA645 gL26gH5 Fab (Fab, V domains shown, Fab: human gamma1 CH1, human kappa (Km3); Kabat numbering) VH: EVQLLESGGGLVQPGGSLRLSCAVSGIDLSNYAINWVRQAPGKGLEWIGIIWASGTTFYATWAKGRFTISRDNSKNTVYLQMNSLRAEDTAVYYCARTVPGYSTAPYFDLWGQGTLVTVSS VL: DIQMTQSPSSVSASVGDRVTITCQSSPSVWYNFLSWYQQKPGKAPKLLIYEASKLTSGVPSRFSGSGSGTDFTLTISSLQPEDFATYYCGGGYSSISDTTFGGGTKVEIK this time
Result :: 4.13

Query :: Same question, CA645 gL22gH5 Fab (Fab, V domains shown, Fab: human gamma1 CH1, human kappa (Km3); Kabat numbering) VH: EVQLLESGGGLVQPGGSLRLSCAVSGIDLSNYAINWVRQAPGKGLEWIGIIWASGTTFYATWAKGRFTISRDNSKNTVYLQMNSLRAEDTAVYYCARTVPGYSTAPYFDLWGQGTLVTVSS VL: DIQMTQSPSSVSASVGDRVTITCQSSPSVWHNFLSWYQQKPGKAPKLLIYEASKLTSGVPSRFSGSGSGTDFTLTISSLQPEDFATYYCGGGYSSISDTTFGGGTKVEIK this time
Result :: 8.58
